logP less than 2 is Satisfied; logP greater than or equal to 2 is Not satisfied.

Please determine if NC(=O)c1cccc(Cn2cnc3ccccc32)c1 is below 2 in terms of logP.
Satisfied

Please determine if COC(=O)C(C)NP(=O)(OCC1C=CC(n2cc(C)c(=O)[nH]c2=O)O1)Oc1ccc(Cl)c(Cl)c1 (stereo not given) is below 2 in terms of logP.
Not satisfied

Please determine if CCCCCOCCCNc1ncnc2c1ncn2C1OC(CO)C(O)C1O (stereo not given) is below 2 in terms of logP.
Satisfied

Please determine if CCOc1cc2ncnc(Nc3ccccc3F)c2cc1OCC is below 2 in terms of logP.
Not satisfied

Please determine if C[N+](C)([O-])Cc1ccccc1 is below 2 in terms of logP.
Satisfied

====

Using logP as the sorting value, the categories are bucket A: < 0.9; bucket B: ≥ 0.9 and < 4; bucket C: ≥ 4

Below are worked cases with known answers.
>>> print(df.to_string())
                                   compound       cat
0            Cc1cc2c(C)cc3oc(=O)cc(C)c3c2o1  bucket B
1                    Cc1cc2ccc3occc3c2oc1=O  bucket B
2  CC(C)NCC(O)c1ccc([N+](=O)[O-])cc1 (configuration not stated)  bucket B
3                       Nc1nnnn1-c1ccccc1Cl  bucket A
4                   OCCCCNc1[nH]cnc2ncnc1-2  bucket A

Field: class (logP) — entry: COC(=O)C1=C(C)NC(C)=C(C(=O)OC(C)C)C1c1cccc2c1OCO2 (configuration not stated)
bucket C

Field: class (logP) — entry: CC1NCCc2c1[nH]c1ccccc21 (configuration not stated)
bucket B

Field: class (logP) — entry: OCCCCCCCNc1ncnc2c1ncn2C1OC(CO)C(O)C1O (configuration not stated)
bucket A

Field: class (logP) — entry: CSCCC(N)C(=O)NC(Cc1c[nH]c2ccccc12)C(=O)O (configuration not stated)
bucket A

Field: class (logP) — entry: Clc1cc(Cl)c2c(c1)Oc1cc(Cl)c(Cl)c(Cl)c1O2
bucket C

====

Where a SMILES comes first, the peptide text is derived from it.
This listing pairs molecules with measured logP.
Answer with a number only.

Use the examples below as a reference point.
In [3]: df
Out[3]:
                                   molecule  quantity  observed_measurement
0  NC(=O)C(CCCN1CC2CCC(CC2)C1)(c1ccccc1)c1ccccn1 (stereo unspecified)      logP                  2.88
1       O=C1N=C(N2CCOCC2)CN1Cc1c(Cl)cccc1Cl      logP                   1.3
2  CC(C)(O)C1CCC2(C)CCCC(C)(O)C2C1 (stereo unspecified)      logP                  3.04

Fill in: logP of CCCCC(=O)OCC(=O)C1(O)Cc2c(O)c3c(c(O)c2C(OC2CC(N)C(O)C(C)O2)C1)C(=O)c1c(OC)cccc1C3=O (stereo unspecified) is ___
2.56

Fill in: logP of N[C@@H](Cc1c[nH]c2ccccc12)C(=O)N[C@@H](Cc1c[nH]c2ccccc12)C(=O)O (H-Trp-Trp-OH) is ___
-0.27

Fill in: logP of COc1ccc(CCNCC(O)COc2ccc(-c3nc(C(N)=O)c[nH]3)cc2)cc1OC (stereo unspecified) is ___
2.3

Fill in: logP of CCCNc1[nH]cnc2ncnc1-2 is ___
1.44

Fill in: logP of S=C=NCCCCc1ccccc1 is ___
4

Fill in: logP of CC(C)NC(CO)C(O)c1ccccc1 (stereo unspecified) is ___
1.19

Fill in: logP of CCCCNC(=O)N1C(=O)N(C)CC1O (stereo unspecified) is ___
1.38

Fill in: logP of CC(C)C(C)NC(CO)C(O)c1ccccc1 (stereo unspecified) is ___
1.61

====

quantity: logP
Answer with a number only.

Use the examples below as a reference point.
>>> print(df.to_string())
                                   molecule  quantity  observed_measurement
0                              N#CNc1ccccc1      logP                  1.87
1  O=[N+]([O-])c1ccc(CSc2ncnc3c(C4OC(CO)C(O)C4O)n[nH]c23)cc1 (stereo not given)      logP                   0.5
2          O=C1C=C(N2CCOCC2)CN1c1ccc(Cl)cc1      logP                   1.9

Fill in: logP of CNS(=O)(=O)c1nnc(NC(C)=O)s1 is ___
0.49

Fill in: logP of CC(=O)c1cc2ccc3cccc4ccc(c1)c2c34 is ___
4.29

Fill in: logP of Cc1oc2c(C)cc3ccc(=O)oc3c2c1C is ___
3.34

Fill in: logP of OCCN1CCN(CCn2nnc3ccccc32)CC1 is ___
-0.05

====

Where a SMILES comes first, the peptide text is derived from it.
quantity: logP
Answer with a number only.

Use the examples below as a reference point.
>>> print(df.to_string())
                                   compound  observed_measurement
0             COc1ccc(Nc2nc(N)nc(O)n2)cc1OC                  1.76
1  O=C(O)CCCCON=C(c1ccnnc1)c1cccc(C(F)(F)F)c1                  2.99
2  CC(C)CC(NC(=O)C(CC(C)C)NC(=O)C(NC(=O)C(C)N)C(C)C)C(=O)O (stereo not given) (H-AVLL-OH; configuration not given here)                 -1.74
3     CCCCNc1ccncc1S(=O)(=O)NC(=NC#N)NC(C)C                  1.05

Fill in: logP of Cc1coc2cc3oc(=O)ccc3c(C)c12 is ___
2.79

====

Where a SMILES comes first, the peptide text is derived from it.
quantity: logP
Answer with a number only.

Use the examples below as a reference point.
                                   compound  observed_measurement
0       CCC(C)NC(=O)NN (stereo unspecified)                 -0.84
1  NC(Cc1ccc(O)cc1)C(=O)NC(Cc1ccc(O)cc1)C(=O)O (stereo not drawn) (H-Tyr-Tyr-OH; configuration not given here)                 -1.87
2  COCc1[nH]c(-c2ccc(OCC(O)CNCCc3ccc(OC)c(OC)c3)cc2)nc1C (stereo unspecified)                   2.8

Fill in: logP of CC1(C)C=[N+]([O-])C(C)(C)C1 is ___
-0.15

====

Where a SMILES comes first, the peptide text is derived from it. [ ]: non-standard residue; d: D form. ξ: configuration not given here. ξW = NC(Cc1c[nH]c2ccccc12)C(=O)O
quantity: logP
Answer with a number only.

Fill in: logP of c1ccc(CCN2CCN(CCn3nc4ccccc4n3)CC2)cc1 is ___
3.72

Fill in: logP of COc1ccccc1CNc1ncnc2nc[nH]c12 is ___
2.31

Fill in: logP of CCc1c(C)nc2c3c(c(C(=O)N(C)C)cn12)CCC(c1ccccc1)O3 (stereo not drawn) is ___
3.2

Fill in: logP of NC(Cc1c[nH]c2ccccc12)C(=O)NCC(=O)NCC(=O)O (stereo not drawn) (H-[ξW]-Gly-Gly-OH) is ___
-2.72

Fill in: logP of CC(C)C(NC(=O)C(Cc1ccccc1)NC(=O)CNC(=O)CN)C(=O)NC(Cc1ccccc1)C(=O)O (stereo not drawn) (H-GGFVF-OH; configuration not given here) is ___
-1.4

Fill in: logP of Cc1coc2cc3oc(=O)cc(C)c3cc12 is ___
2.76

Fill in: logP of CCCCCCCNCc1ccc(C)cc1 is ___
5.12

Fill in: logP of CN1CC(O)N(C(=O)NC2CCCC2)C1=O (stereo not drawn) is ___
1.47

====

This listing pairs compounds with measured logP.

Use the examples below as a reference point.
In [3]: df
Out[3]:
                                   compound  observed_measurement
0  CC(=O)OC1C(C)OC(n2cc(F)c(=O)[nH]c2=O)C1OC(C)=O (stereo not given)                 -0.02
1  CCCON=C(C)c1cccc(Oc2nc(OC)cc(OC)n2)c1C(=O)OC                  3.59
2  CCOC(=O)C1=C(C)NC(C)=C(C(=O)OC)C1c1ccccc1 (stereo not given)                  4.14
3                    Cc1ccc(-n2nnnc2N)cc1Cl                  1.89
4     Clc1cc(Cl)c2c(oc3c(Cl)ccc(Cl)c32)c1Cl                  6.34

Fill in: logP of CC(C)(C)NC(=O)[C@@H]1C[C@@H]2CCCC[C@@H]2CN1C[C@@H](O)[C@H](Cc1ccccc1)NC(=O)[C@H](CC(N)=O)NC(=O)c1ccc2ccccc2n1 is ___
4.7

Fill in: logP of O=C(O)c1cc(O)c2ccc(Cl)cc2n1 is ___
1.05

Fill in: logP of COc1ccc(S(C)(=O)=O)cc1CNC1CCCNC1c1ccccc1 (stereo not given) is ___
1.9

Fill in: logP of CC(=O)Oc1ccccc1C(=O)OC1Cc2c(O)cc(O)cc2OC1c1ccc(O)c(O)c1 (stereo not given) is ___
2.87

Fill in: logP of COc1ccc(CCNCC(O)COc2ccc(-c3nccs3)cc2)cc1OC (stereo not given) is ___
2.5
